Test system: H929 (multiple myeloma)
Test: Cell proliferation inhibition, Cell Titer-Glo, H929
Format: cell-based
Conditions: Homo sapiens, NCI-H929; cell proliferation assay, H929 cells
Property Name: IC50

Cc1ccc(F)c(OC[C@H](O)CNc2cc[nH]c(=O)c2-c2nc3cc4c(cc3[nH]2)C(=O)N(C2CCN(C)CC2)C4)c1Cl = 0.5 to 5 µM
Cc1ccc(OC[C@@H](O)CNc2cc[nH]c(=O)c2-c2nc3cc4c(cc3[nH]2)C(=O)N([C@@H]2CCN(C)C2)C4=O)c(C)c1 = 5 to 15 µM
CN1CCC(N2Cc3cc4[nH]c(-c5c(NC[C@@H](O)COc6cc(F)c(F)cc6Br)cc[nH]c5=O)nc4cc3C2=O)CC1 = 5 to 15 µM

Here is another compound to look at.
Q: Form field: reported IC50 of "CN1CCC(N2Cc3cc4nc(-c5c(NC[C@@H](O)COc6ccc(F)cc6F)cc[nH]c5=O)[nH]c4cc3C2=O)CC1"
A: 5 to 15 µM
